Catalogue of hAmylin-R funct. EC50 (pM) readings, one per entry.
Molecular target: T1, human amylin 3(a) receptor (human calcitonin receptor co-expressed with RAMP-3) (human, UniProt P30988 25-474; O60896 24-148, limits assumed)
T1 sequence (looked up) 1: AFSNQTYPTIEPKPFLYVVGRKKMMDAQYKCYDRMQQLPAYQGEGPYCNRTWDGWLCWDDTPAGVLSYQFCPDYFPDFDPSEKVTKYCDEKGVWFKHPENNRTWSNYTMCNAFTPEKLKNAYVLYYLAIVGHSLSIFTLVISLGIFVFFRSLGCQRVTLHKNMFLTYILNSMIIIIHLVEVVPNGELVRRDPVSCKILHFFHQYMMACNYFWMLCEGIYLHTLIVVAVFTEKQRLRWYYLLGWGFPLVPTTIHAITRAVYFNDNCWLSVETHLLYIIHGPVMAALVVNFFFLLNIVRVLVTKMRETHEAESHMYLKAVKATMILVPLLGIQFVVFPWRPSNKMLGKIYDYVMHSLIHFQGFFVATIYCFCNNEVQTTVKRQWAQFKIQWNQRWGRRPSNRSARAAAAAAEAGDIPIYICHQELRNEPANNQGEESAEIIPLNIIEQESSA
T1 sequence (looked up) 2: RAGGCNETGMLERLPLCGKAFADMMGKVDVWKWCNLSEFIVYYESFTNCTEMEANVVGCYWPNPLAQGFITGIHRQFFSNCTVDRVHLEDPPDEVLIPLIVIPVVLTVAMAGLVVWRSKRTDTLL
Assay: cell-based or functional assay
Numbered stars: 1 amine (or outer) side, 2 acyl side, 3 side chain; on linkers, the order of the positions; unused ones are H or OH. Ends that are not written are not given here. * marks the point of attachment. C18 diacid = O=C(O)CCCCCCCCCCCCCCCCC(=O)*; C16 diacid = O=C(O)CCCCCCCCCCCCCCC(=O)*; γGlu = O=C(O)[C@H](CCC(=O)[*:2])N[*:1]

BINDER	UNITS TEXT	hAmylin-R funct. EC50 (pM)
EASELSTAALGRLSAELHELATLPRTETGPESP-OH [[C-terminal(-)]mimylin]	pM	23600
{C18 diacid-γGlu}-ASELTTAVLGRLSAELHELATLPRTETGTGTP-NH2 [[N-terminal(C18 diacid-gGlu), des1, 6T, 9V, 30T, 31G, 32T]mimylin]	pM	65
{C18 diacid}-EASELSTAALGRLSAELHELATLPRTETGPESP-OH [[N-terminal(C18 diacid), C-terminal(-)]mimylin]	pM	481
{C16 diacid}-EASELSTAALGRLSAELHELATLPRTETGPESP-NH2 [[N-terminal(C16 diacid)]mimylin]	pM	8
